# Test details: basal RPMI8226 viability, no added stimulus, profiling panel, cell-based, calcein-AM fluorescence, 48 h, PK04 Diversity Set (AID 1166);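 further: cells grown under basal conditions without added stimulus; test concentration not given here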
# Condition parameters: RPMI8226 myeloma viability, higher = more signal
I'd appreciate it if you marked entries 1.0 when z-score is lower than -2 and 0.0 when it is not.

Prompt line: Lab note: z-score threshold -2. Does this molecule come in strictly under it? `COC(=O)[C@@]1(Cc2ccc(OC)cc2)[C@H]2c3cc(C(=O)N4CCCC4)n(Cc4ccccc4)c3C[C@H]2CN1C(=O)c1ccccc1`
Response line: 1.0

Prompt line: Lab note: z-score threshold -2. Does this molecule come in strictly under it? `COC(=O)[C@@]1(Cc2ccc(F)cc2)[C@H]2c3cc(C(=O)N4CCCC4)n(Cc4cc(C)n(C)n4)c3C[C@H]2CN1C(=O)c1ccccc1`
Response line: 0.0

Prompt line: Lab note: z-score threshold -2. Does this molecule come in strictly under it? `CCCC=C(CCC)[C@@H](NC(=O)Oc1ccc(F)cc1)c1ccc(C(=O)OC)cc1`
Response line: 1.0

Prompt line: Lab note: z-score threshold -2. Does this molecule come in strictly under it? `O=C1NCC(=O)N2[C@@H]1C[C@@H](C(=O)O)[C@H]2c1cccc(OCCO)c1`
Response line: 0.0

Prompt line: Lab note: z-score threshold -2. Does this molecule come in strictly under it? `C=C/C=C/[C@H]1C(=C)CN([C@@H](Cc2ccccc2)C(=O)OC)[C@@H]1[C@H](O)Cc1ccccc1`
Response line: 0.0

Prompt line: Lab note: z-score threshold -2. Does this molecule come in strictly under it? `COc1ccc(CCNC(=O)[C@@]2(C)c3ccccc3C(=O)N(Cc3cc(F)cc(C(F)(F)F)c3)[C@H]2c2ccc(CO)cc2)cc1`
Response line: 1.0

Prompt line: Lab note: z-score threshold -2. Does this molecule come in strictly under it? `CCOC(=O)C[C@H]1[C@H](OC(=O)c2ccc(C(=O)c3ccccc3)cc2)[C@@H](NC(=O)c2ccc(-c3ccccc3)cc2)c2cc(OCCCO)ccc2N1C(=O)c1ccccc1`
Response line: 0.0

Prompt line: Lab note: z-score threshold -2. Does this molecule come in strictly under it? `CCOC(=O)[C@H]1C/C=C/C[C@H](C(=O)OCC)C(=O)O[C@H]2[C@@H](OC)O[C@H](CO)[C@@H](OC(=O)Nc3cccc(F)c3)[C@@H]2OC1=O`
Response line: 1.0

Prompt line: Lab note: z-score threshold -2. Does this molecule come in strictly under it? `Cc1ccc(S[C@]2(C(=O)NCCN3CCOCC3)CC(=O)N(Cc3ccccc3Cl)[C@@H]2c2ccc(CO)cc2)cc1`
Response line: 0.0

Prompt line: Lab note: z-score threshold -2. Does this molecule come in strictly under it? `[N-]=[N+]=Nc1ccccc1C[C@]1(C(N)=O)N=C(c2ccc(OCCCO)cc2)O[C@H]1c1ccccc1`
Response line: 0.0

Prompt line: Lab note: z-score threshold -2. Does this molecule come in strictly under it? CN1C(=O)C2C=CC(C(O)C3CCCCC3)N(Nc3ccc([N+](=O)[O-])cc3[N+](=O)[O-])C2C1=O (stereo not given)
Response line: 0.0

Prompt line: Lab note: z-score threshold -2. Does this molecule come in strictly under it? `O=C(NCc1ccc(F)cc1)[C@H]1C[C@H]2C(=O)N[C@@H](Cc3ccccc3)C(=O)N2[C@H]1c1ccc(O)cc1`
Response line: 0.0

Prompt line: Lab note: z-score threshold -2. Does this molecule come in strictly under it? `O=C1c2ccccc2[C@@]2(Cc3ccccc3N(CCN3CCOCC3)C2=O)[C@H](c2ccc(CO)cc2)N1Cc1ccccc1`
Response line: 0.0

Prompt line: Lab note: z-score threshold -2. Does this molecule come in strictly under it? CCCCCC1=C2CNC(CCC)(C(=O)OC)C=C2C(C)C1=O (stereo not given)
Response line: 0.0

Prompt line: Lab note: z-score threshold -2. Does this molecule come in strictly under it? `O=C(O)[C@@]1(CCS(=O)(=O)c2ccccc2)COC(c2ccc(OCCCO)cc2)=N1`
Response line: 0.0

Prompt line: Lab note: z-score threshold -2. Does this molecule come in strictly under it? `[N-]=[N+]=Nc1ccccc1[C@H]1OC(c2ccc(OCCCO)cc2)=N[C@@]1(Cc1ccccc1)C(=O)O`
Response line: 0.0

Prompt line: Lab note: z-score threshold -2. Does this molecule come in strictly under it? `COC(=O)[C@@]1(Cc2ccccc2)[C@H]2c3cc(C(=O)N4CCCC4)n(Cc4nc5ccccc5[nH]4)c3C[C@H]2CN1C(=O)c1ccccc1`
Response line: 1.0

Prompt line: Lab note: z-score threshold -2. Does this molecule come in strictly under it? `COCCCN1C(=O)[C@@]2(Cc3ccccc31)c1ccccc1C(=O)N(Cc1ccccc1C(F)(F)F)[C@H]2c1ccc(CO)cc1`
Response line: 0.0

Prompt line: Lab note: z-score threshold -2. Does this molecule come in strictly under it? `C=CC[C@@]1(C(N)=O)N=C(c2ccc(OCCCO)cc2)O[C@@H]1c1ccccc1CN=[N+]=[N-]`
Response line: 0.0

Prompt line: Lab note: z-score threshold -2. Does this molecule come in strictly under it? COC(=O)C=C(CC(O)c1cccc(Cl)c1)OC (stereo not given)
Response line: 0.0

Prompt line: Lab note: z-score threshold -2. Does this molecule come in strictly under it? `COC(=O)[C@@]1(Cc2ccc(OC)cc2)[C@H]2c3cc(C(=O)N(C)C)n(Cc4cccc5ccccc45)c3C[C@H]2CN1C(=O)c1ccccc1`
Response line: 1.0

Prompt line: Lab note: z-score threshold -2. Does this molecule come in strictly under it? O=C1C2C=CC(C(O)C3CCCCC3)N(Nc3ccc([N+](=O)[O-])cc3)C2C(=O)N1c1ccccc1 (stereo not given)
Response line: 0.0

Prompt line: Lab note: z-score threshold -2. Does this molecule come in strictly under it? O=C1OCCC/C=C\[C@H]2OC34C=CCN(CCN5CCOCC5)C(=O)[C@H]3N(CCCO)C(=O)[C@@H]4C12 (stereo not given in full)
Response line: 0.0

Prompt line: Lab note: z-score threshold -2. Does this molecule come in strictly under it? COc1ccc(COC2OC[C@]3(C)[C@H]4C5=C(CN3C(=O)OC(C)(C)C)[C@H](C)C(CO)C(CO)C5CC[C@@H]24)cc1 (stereo not given in full)
Response line: 0.0

Prompt line: Lab note: z-score threshold -2. Does this molecule come in strictly under it? `CC[C@@H]1C=C(C(=O)O)[C@H](c2ccco2)N1S(=O)(=O)c1ccc(C)cc1`
Response line: 0.0

Prompt line: Lab note: z-score threshold -2. Does this molecule come in strictly under it? `COc1ccc([Si](C)(C)[C@H]2[C@H](CCO)O[C@@]3(C(=O)N(Cc4ccc(N5C(=O)COc6ccccc65)cc4)c4ccccc43)[C@@H]2C)cc1`
Response line: 1.0

Prompt line: Lab note: z-score threshold -2. Does this molecule come in strictly under it? `COc1ccc([Si](C)(C)[C@@H]2[C@@H](CC(=O)N3Cc4ccccc4C[C@H]3CO)O[C@]3(C(=O)N(C)c4c(Br)cc(C)cc43)[C@H]2C)cc1`
Response line: 1.0

Prompt line: Lab note: z-score threshold -2. Does this molecule come in strictly under it? `CN(C)C(=O)[C@@]1(Cc2ccccc2CN=[N+]=[N-])N=C(c2ccc(OCCCO)cc2)O[C@H]1c1ccccc1`
Response line: 1.0

Prompt line: Lab note: z-score threshold -2. Does this molecule come in strictly under it? O=C1OCC=C[C@H]2OC34C=CCN(c5ccc6ccccc6c5)C(=O)[C@H]3N(CCCCCCO)C(=O)[C@@H]4[C@@H]12 (stereo not given in full)
Response line: 0.0

Prompt line: Lab note: z-score threshold -2. Does this molecule come in strictly under it? `COCC(=C=CC[C@@H](O)c1ccccc1OCCO)C[C@@H](O)c1cc(Cl)cc(Cl)c1O`
Response line: 1.0
